- target-or-system: PKR R510Q (Homo sapiens, UniProt P30613, R510Q)
- Sequence (P30613 whole entry R510Q): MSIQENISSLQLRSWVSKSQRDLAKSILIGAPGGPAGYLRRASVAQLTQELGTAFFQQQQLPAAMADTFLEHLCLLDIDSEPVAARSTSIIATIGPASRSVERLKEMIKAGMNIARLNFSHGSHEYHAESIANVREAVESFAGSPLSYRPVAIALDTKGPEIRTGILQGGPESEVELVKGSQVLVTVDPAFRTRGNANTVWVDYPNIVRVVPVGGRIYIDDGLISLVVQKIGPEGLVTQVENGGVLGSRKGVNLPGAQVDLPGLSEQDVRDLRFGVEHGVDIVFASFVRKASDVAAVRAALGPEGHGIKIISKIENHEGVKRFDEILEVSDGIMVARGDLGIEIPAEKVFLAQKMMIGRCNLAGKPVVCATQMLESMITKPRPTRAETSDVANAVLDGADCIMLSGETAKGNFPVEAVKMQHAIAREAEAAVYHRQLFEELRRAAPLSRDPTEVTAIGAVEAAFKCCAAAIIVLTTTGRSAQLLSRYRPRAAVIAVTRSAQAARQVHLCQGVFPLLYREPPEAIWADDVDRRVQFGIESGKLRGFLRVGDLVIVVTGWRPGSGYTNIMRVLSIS
- test-description: PKR R510Q Single Point Percent Activation Assay
- Type: biochemical
- recorded-conditions: read-out: Act. % 510Q
Form field: activation at 1 µM (one value per entry).
assay-endpoint: activation at 1 µM

INSERT INTO assay_data (compound, result) VALUES
  ('C[C@@H]1CN(Cc2ccccc2F)CCN1C(=O)c1ccc(NS(=O)(=O)c2cccc3cccnc23)cc1', '101 to 500%'),
  ('O=C(c1ccc(NS(=O)(=O)c2cccc3cccnc23)cc1)N1CCN(CC2CC2)c2ccccc21', '1 to 100%'),
  ('C[C@H]1CN(C(=O)c2ccc(NS(=O)(=O)c3cccc4cccnc34)cc2)CCN1Cc1ccccc1', '101 to 500%'),
  ('CC1CN(Cc2ccc(Cl)c(F)c2)CC(C)N1C(=O)c1ccc(NS(=O)(=O)c2cccc3cccnc23)cc1 (centres unmarked)', '101 to 500%'),
  ('O=C(c1ccc(NS(=O)(=O)c2cccc3cccnc23)cc1)N1CCN(Cc2ccc(F)cc2)C[C@@H]1c1ccccc1', '1 to 100%'),
  ('O=C(c1ccc(NS(=O)(=O)c2cccc3cccnc23)cc1)N1CCN(C[C@@H]2CCOC2)CC1', '101 to 500%'),
  ('CC(c1ccc(F)cc1Cl)N1CCN(C(=O)c2ccc(NS(=O)(=O)c3cccc4cccnc34)cc2)[C@H](C)C1 (some centres unmarked)', '1 to 100%'),
  ('O=C(c1ccc(NS(=O)(=O)c2cccc3cccnc23)cc1)N1CC2CCC(C1)N2CC1CC1', '101 to 500%');

----------
- target-or-system: PKR wt (Homo sapiens, UniProt P30613)
- Sequence (P30613 whole entry): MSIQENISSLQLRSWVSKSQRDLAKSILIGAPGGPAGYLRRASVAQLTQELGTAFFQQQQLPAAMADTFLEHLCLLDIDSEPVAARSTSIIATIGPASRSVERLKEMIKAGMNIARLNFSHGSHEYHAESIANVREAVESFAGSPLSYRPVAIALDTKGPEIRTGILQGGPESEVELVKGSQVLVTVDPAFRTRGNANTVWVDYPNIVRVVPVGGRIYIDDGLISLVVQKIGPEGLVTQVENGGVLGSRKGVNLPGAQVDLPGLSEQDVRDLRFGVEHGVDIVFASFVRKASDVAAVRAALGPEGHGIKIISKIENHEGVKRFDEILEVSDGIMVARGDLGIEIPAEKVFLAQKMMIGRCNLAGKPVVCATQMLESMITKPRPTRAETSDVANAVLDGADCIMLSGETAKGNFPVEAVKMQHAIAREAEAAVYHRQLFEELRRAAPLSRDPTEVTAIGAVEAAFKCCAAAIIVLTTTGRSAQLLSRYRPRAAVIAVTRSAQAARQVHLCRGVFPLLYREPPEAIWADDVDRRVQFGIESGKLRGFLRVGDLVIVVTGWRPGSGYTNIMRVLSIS
- test-description: PKR WT Single Point Percent Activation Assay
- Type: biochemical
assay-endpoint: activation at 1 µM

INSERT INTO assay_data (compound, target_or_system, assay_endpoint, result) VALUES
  ('C[C@H]1CN(C(=O)c2ccccn2)CCN1C(=O)c1ccc(NS(=O)(=O)c2cccc3cccnc23)cc1', 'PKR wt (Homo sapiens, UniProt P30613)', 'activation at 1 µM', '101 to 500%'),
  ('C[C@@H]1CN(Cc2c(F)ccc(F)c2F)CCN1C(=O)c1ccc(NS(=O)(=O)c2cccc3cccnc23)cc1', 'PKR wt (Homo sapiens, UniProt P30613)', 'activation at 1 µM', '101 to 500%'),
  ('C[C@H]1CN(Cc2cc(F)cc(F)c2)CCN1C(=O)c1ccc(NS(=O)(=O)c2cccc3cccnc23)cc1', 'PKR wt (Homo sapiens, UniProt P30613)', 'activation at 1 µM', '101 to 500%'),
  ('CC[C@H]1CN(C(C)c2cc(F)cc(F)c2)CCN1C(=O)c1ccc(NS(=O)(=O)c2cccc3cccnc23)cc1 (some centres unmarked)', 'PKR wt (Homo sapiens, UniProt P30613)', 'activation at 1 µM', '1 to 100%'),
  ('CC1CN(Cc2ccc(F)cc2)CC(C)N1C(=O)c1ccc(NS(=O)(=O)c2cccc3cccnc23)cc1 (centres unmarked)', 'PKR wt (Homo sapiens, UniProt P30613)', 'activation at 1 µM', '1 to 100%'),
  ('C[C@H]1CN(CC2CC2)CCN1C(=O)c1ccc(NS(=O)(=O)c2cccc3cccnc23)cc1', 'PKR wt (Homo sapiens, UniProt P30613)', 'activation at 1 µM', '101 to 500%'),
  ('CC1CN(Cc2cc(F)cc(F)c2)CC(C)N1C(=O)c1ccc(NS(=O)(=O)c2cccc3cccnc23)cc1 (centres unmarked)', 'PKR wt (Homo sapiens, UniProt P30613)', 'activation at 1 µM', '1 to 100%'),
  ('C[C@H]1CN(CC2CCCCO2)CCN1C(=O)c1ccc(NS(=O)(=O)c2cccc3cccnc23)cc1 (some centres unmarked)', 'PKR wt (Homo sapiens, UniProt P30613)', 'activation at 1 µM', '1 to 100%');
